The origin of these recorded values is patent US7183252B2.

- Test system: gel-filtered platelets
- testDetails: In vitro inhibition of thrombin-induced gel-filtered platelet aggregation
- Format: cell-based
- conditionDetails: Platelet; human gel-filtered platelets; agonist thrombin 50 μL of 1 unit/mL; read-out: Thrmb IC50 (Thrombin-induced aggregation of gel-filtered platelets)
pIC50: −log10 of the molar value.
observationType: pIC50

- NCCC[C@H](NC(=O)[C@H](Cc1ccc(F)c(F)c1)NC(=O)Nc1ccc2c(CN3CCCC3)cn(Cc3c(Cl)cccc3Cl)c2c1)C(=O)NCc1cccnc1 [Compound 116]: 5.96
- N=C(N)NCCC[C@H](NC(=O)[C@H](Cc1cccs1)NC(=O)Nc1ccc2c(CN3CCCC3)cn(Cc3ccc(F)cc3)c2c1)C(=O)NCc1ccccc1 [Compound 28]: 4.86
- Cc1ccccc1Cn1cc(CN2CCCC2)c2ccc(NC(=O)N[C@@H](Cc3ccc(OCc4ccccc4)cc3)C(=O)N[C@@H](CCCN=C(N)N)C(=O)NCc3ccccc3)cc21 [Compound 36]: 5.17
- CC(=N)NCC[C@H](NC(=O)[C@H](Cc1ccc(F)c(F)c1)NC(=O)Nc1ccc2c(CN3CCCC3)cn(Cc3c(Cl)cccc3Cl)c2c1)C(=O)NCc1ccccc1 [Compound 118]: 6.55

----------
Quick reference: IC50 of the listed items.
- testedTarget: thrombin receptor (PAR-1) (Homo sapiens, UniProt P25116)
- Construct: CHRF membranes (Jones, Biochim. Biophys. Acta 1992, 1136, 272) are thawed from −70° C; endogenous in cells
- Sequence (P25116 22-425): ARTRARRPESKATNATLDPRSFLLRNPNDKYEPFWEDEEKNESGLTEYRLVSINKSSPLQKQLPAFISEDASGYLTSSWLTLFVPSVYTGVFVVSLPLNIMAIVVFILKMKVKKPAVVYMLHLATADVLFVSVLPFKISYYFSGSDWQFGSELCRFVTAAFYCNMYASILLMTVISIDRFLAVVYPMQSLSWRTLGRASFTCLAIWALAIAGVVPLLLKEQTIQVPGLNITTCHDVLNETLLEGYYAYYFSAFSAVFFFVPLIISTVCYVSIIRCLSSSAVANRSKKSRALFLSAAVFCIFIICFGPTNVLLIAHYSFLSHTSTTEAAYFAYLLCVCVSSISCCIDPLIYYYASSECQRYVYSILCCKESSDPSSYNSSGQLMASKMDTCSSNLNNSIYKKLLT
- testDetails: In vitro thrombin receptor binding assay (CHRF membranes)
- conditionDetails: tritiated 721-40 radioligand, read-out: Bndg IC50 (Thrombin receptor binding)
observationType: IC50 (nM)

• Cc1ccccc1Cn1cc(CN2CCCC2)c2ccc(NC(=O)N[C@@H](Cc3cccnc3)C(=O)N[C@@H](CCCNC(=N)N)C(=O)NCc3ccccc3)cc21 = 8400
• Cc1cccc(Cn2cc(CN3CCCC3)c3ccc(NC(=O)N[C@@H](Cc4ccc(F)c(F)c4)C(=O)N[C@@H](Cc4cccs4)C(=O)NCCCN)cc32)c1 = 27000
• COc1ccc(C[C@H](NC(=O)Nc2ccc3c(CN4CCC4)cn(Cc4ccc(F)cc4)c3c2)C(=O)N[C@@H](CCCNC(=N)N)C(=O)NCc2ccccc2)cc1 = 3300
• Cc1ccccc1Cn1cc(CN2CCCC2)c2ccc(NC(=O)N[C@@H](Cc3ccc(OCc4ccccc4)cc3)C(=O)N[C@@H](CCCN=C(N)N)C(=O)NCc3ccccc3)cc21 = 16700
• Cc1ccccc1Cn1cc(CN2CCCC2)c2ccc(NC(=O)N[C@@H](Cc3ccc(F)c(F)c3)C(=O)N[C@@H](CCCNC(=N)N)C(=O)NCCc3ccccc3Cl)cc21 = 230
• N=C(N)NCCC[C@H](NC(=O)[C@H](Cc1ccc(F)c(F)c1)NC(=O)Nc1ccc2c(CN3CCCC3)cn(Cc3c(Cl)cccc3Cl)c2c1)C(=O)NCc1ccc(F)cc1 = 140
• NCCC[C@H](NC(=O)[C@H](Cc1ccc(F)c(F)c1)NC(=O)Nc1ccc2c(CN3CCCC3)cn(Cc3c(Cl)cccc3Cl)c2c1)C(=O)NC1CCCC1 = 660
• COCC[C@H](NC(=O)[C@H](Cc1ccc(F)c(F)c1)NC(=O)Nc1ccc2c(CN3CCCC3)cn(Cc3c(Cl)cccc3Cl)c2c1)C(=O)NCCN = 40
• N=C(N)NCCC[C@@H](NC(=O)[C@H](Cc1ccc(F)c(F)c1)NC(=O)Nc1ccc2c(CN3CCCC3)cn(Cc3c(Cl)cccc3Cl)c2c1)C(=O)NCc1ccccc1 = 620
• CCCN(CCC)Cc1cn(Cc2c(Cl)cccc2Cl)c2cc(NC(=O)N[C@@H](Cc3ccc(OC)cc3)C(=O)N[C@@H](CCCNC(=N)N)C(=O)NCc3ccccc3)ccc12 = 10400
• CCN(CC)Cc1cn(CCc2ccc(F)cc2)c2cc(NC(=O)N[C@@H](Cc3ccc(F)c(F)c3)C(=O)N[C@@H](CCCNC(=N)N)C(=O)NCc3ccccc3)ccc12 = 200
• NC(N)=NCCC[C@H](NC(=O)[C@H](Cc1ccc(I)cc1)NC(=O)Nc1ccc2c(CN3CCCCC3)cn(Cc3c(Cl)cccc3Cl)c2c1)C(=O)NCc1ccccc1 = 1600
• CN(C)CCNC(=O)[C@H](CCCN)NC(=O)[C@H](Cc1ccc(F)c(F)c1)NC(=O)Nc1ccc2c(CN3CCCC3)cn(Cc3c(Cl)cccc3Cl)c2c1 = 1500
• COc1ccc(C[C@H](NC(=O)Nc2ccc3c(CN4CCCC4)cn(Cc4ccc(I)cc4)c3c2)C(=O)N[C@@H](CCCNC(=N)N)C(=O)NCc2ccccc2)cc1 = 3100
• COc1ccc(C[C@H](NC(=O)Nc2ccc3c(CN4CCCC4)cn(Cc4ccccc4C)c3c2)C(=O)N[C@@H](CCCNC(=N)N)C(=O)NCc2ccccc2)cc1 = 970
• Cc1ccccc1Cn1cc(CN2CCCC2)c2ccc(NC(=O)N[C@@H](Cc3c(F)c(F)c(F)c(F)c3F)C(=O)N[C@@H](CCCNC(=N)N)C(=O)NCc3ccccc3)cc21 = 7600
• CC(=N)NCCNC(=O)[C@H](CCNC(C)=N)NC(=O)[C@H](Cc1ccc(F)c(F)c1)NC(=O)Nc1ccc2c(CN3CCCC3)cn(Cc3c(Cl)cccc3Cl)c2c1 = 120
• NCC[C@H](NC(=O)[C@H](Cc1ccc(F)c(F)c1)NC(=O)Nc1cccc2c1c(CN1CCCC1)cn2Cc1c(Cl)cccc1Cl)C(=O)NCc1ccccc1 = 49600
• C[C@@H](NC(=O)[C@H](CCN)NC(=O)[C@H](Cc1ccc(F)c(F)c1)NC(=O)Nc1ccc2c(CN3CCCC3)cn(Cc3c(Cl)cccc3Cl)c2c1)c1ccccc1 = 480
• COc1ccc(C[C@H](NC(=O)Nc2ccc3c(CN4CCCC4)cn(Cc4ccc(F)cc4)c3c2)C(=O)N[C@@H](CCCNC(=N)N)C(=O)NCc2ccccc2)cc1 = 600
• NCC[C@H](NC(=O)[C@H](Cc1ccc(F)c(F)c1)NC(=O)Nc1ccc2c(CN3CCCC3)cn(Cc3c(Cl)cccc3Cl)c2c1)C(=O)NCCN1CCCC1 = 70

----------
- testedTarget: thrombin receptor (PAR-1) (Homo sapiens)
- Construct: CHRF membranes (Jones, Biochim. Biophys. Acta 1992, 1136, 272) are thawed from −70° C; endogenous in cells
- testDetails: In vitro thrombin receptor binding assay (CHRF membranes)
- conditionDetails: tritiated 721-40 radioligand, read-out: Bndg IC50 (Thrombin receptor binding)
observationType: IC50

* COc1ccc(C[C@H](NC(=O)Nc2ccc3c(c2)c(CN2CCSC2)cn3Cc2ccc(F)cc2)C(=O)N[C@@H](CCCNC(=N)N)C(=O)NCc2ccccc2)cc1 | 3000 nM
* NCC[C@H](NC(=O)[C@H](Cc1ccc(F)c(F)c1)NC(=O)Nc1ccc2c(CN3CCCC3)cn(Cc3c(Cl)cccc3Cl)c2c1)C(=O)NCc1ccc([N+](=O)[O-])cc1 | 1800 nM
* NCCC[C@H](NC(=O)[C@H](Cc1ccc(F)c(F)c1)NC(=O)Nc1ccc2c(CN3CCCC3)cn(Cc3c(Cl)cccc3Cl)c2c1)C(=O)NCc1cccnc1 | 410 nM
* N=C(N)NCCC[C@H](NC(=O)[C@H](Cc1cccc(F)c1)NC(=O)Nc1ccc2c(CN3CCCC3)cn(Cc3c(Cl)cccc3Cl)c2c1)C(=O)NCc1ccc(S(N)(=O)=O)cc1 | 1000 nM
* NCCC[C@H](NC(=O)[C@H](Cc1cccc(F)c1)NC(=O)Nc1ccc2c(CN3CCCC3)cn(Cc3c(Cl)cccc3Cl)c2c1)C(=O)NC1Cc2ccccc2C1 | 2800 nM

----------
Quick reference: pIC50 of the listed items.
- System: gel-filtered platelets
- testDetails: In vitro inhibition of thrombin-induced gel-filtered platelet aggregation
- Type: cell-based
- conditionDetails: Platelet; human gel-filtered platelets; agonist thrombin 50 μL of 1 unit/mL; read-out: Thrmb IC50 (Thrombin-induced aggregation of gel-filtered platelets)
- Experimental: In Vitro Inhibition of Thrombin-Induced Gel-Filtered Platelet Aggregation Assay The percentage of platelet aggregation is calculated as an increase in light transmission of compound-treated platelet concentrate vs. control-treated platelet concentrate. Human blood is obtained from drug free, normal donors in tubes containing 0.13M sodium citrate. […] Aggregation is monitored in a BIODATA aggregometer for the 3 min following the addition of agonist (thrombin 50 μL of 1 unit/mL). […]
pIC50: −log10 of the molar value.
observationType: pIC50

* C=CCOC(=O)[C@H](CCCN)NC(=O)[C@H](Cc1ccc(F)c(F)c1)NC(=O)Nc1ccc2c(CN3CCCC3)cn(Cc3c(Cl)cccc3Cl)c2c1 [Compound 93] | 6.13
* COc1ccc(C[C@H](NC(=O)Nc2ccc3c(CN4CCCC4)cn(Cc4c(Cl)cccc4Cl)c3c2)C(=O)N[C@@H](CCCNC(=N)N)C(=O)NCc2ccccc2)cc1 [Compound 14] | 6.31
* COCC[C@H](NC(=O)[C@H](Cc1ccc(F)c(F)c1)NC(=O)Nc1ccc2c(CN3CCCC3)cn(Cc3c(Cl)cccc3Cl)c2c1)C(=O)NCCN [Compound 156] | 6.22
* NCCCNC(=O)[C@H](Cc1ccncc1)NC(=O)[C@H](Cc1ccc(Cl)cc1)NC(=O)Nc1ccc2c(CN3CCCC3)cn(Cc3c(Cl)cccc3Cl)c2c1 [Compound 145] | 6.60
* CN(C)CCNC(=O)[C@H](CCCN)NC(=O)[C@H](Cc1ccc(F)c(F)c1)NC(=O)Nc1ccc2c(CN3CCCC3)cn(Cc3c(Cl)cccc3Cl)c2c1 [Compound 126] | 6.34
* NC(=O)CC[C@H](NC(=O)[C@H](Cc1ccc(F)c(F)c1)NC(=O)Nc1ccc2c(CN3CCCC3)cn(Cc3c(Cl)cccc3Cl)c2c1)C(=O)NCc1ccccc1 [Compound 103] | 6.27
* CCOC(=O)N1CCC(NC(=O)[C@H](CCN)NC(=O)[C@H](Cc2ccc(F)c(F)c2)NC(=O)Nc2ccc3c(CN4CCCC4)cn(Cc4c(Cl)cccc4Cl)c3c2)CC1 [Compound 144] | 6.49
* COc1ccc(C[C@H](NC(=O)Nc2ccc3c(CN4CCCC4)cn(Cc4ccccc4F)c3c2)C(=O)N[C@@H](CCCNC(=N)N)C(=O)NCc2ccccc2)cc1 [Compound 7] | 5.88
* NCCC[C@H](NC(=O)[C@H](Cc1ccc(F)c(F)c1)NC(=O)Nc1ccc2c(CN3CCCC3)cn(Cc3c(Cl)cccc3Cl)c2c1)C(=O)NC1CCCC1 [Compound 125] | 6.37
* NC(N)=NCCC[C@H](NC(=O)[C@H](Cc1cccc(F)c1)NC(=O)Nc1ccc2c(CN3CCC(=O)CC3)cn(Cc3c(Cl)cccc3Cl)c2c1)C(=O)NCc1ccccc1 [Compound 88] | 4.90
* Cc1ccccc1Cn1cc(CN2CCCC2)c2cccc(NC(=O)N[C@@H](Cc3ccc(F)c(F)c3)C(=O)N[C@@H](CCN)C(=O)NCc3ccccc3)c21 [Compound 168] | 5.08
* N=C(N)NCCC[C@H](NC(=O)[C@H](Cc1ccc(F)c(F)c1)NC(=O)Nc1ccc2c(CN3CCCC3)cn(Cc3ccccc3Cl)c2c1)C(=O)NCc1ccccc1 [Compound 55] | 6.47
* CCN(CC)Cc1cn(CCc2ccc(F)cc2)c2cc(NC(=O)N[C@@H](Cc3ccc(F)c(F)c3)C(=O)N[C@@H](CCCNC(=N)N)C(=O)NCc3ccccc3)ccc12 [Compound 76] | 5.96
* Cc1cccc(Cn2cc(CN3CCCC3)c3ccc(NC(=O)N[C@@H](Cc4ccc(F)c(F)c4)C(=O)N[C@@H](Cc4cccs4)C(=O)NCCCN)cc32)c1 [Compound 153] | 6.10
* NCCC[C@H](NC(=O)[C@H](Cc1cccc(F)c1)NC(=O)Nc1ccc2c(CN3CCCC3)cn(Cc3c(Cl)cccc3Cl)c2c1)C(=O)NC1Cc2ccccc2C1 [Compound 96] | 6.00
* N=C(N)NCCC[C@H](NC(=O)CCNC(=O)[C@H](Cc1ccc(F)c(F)c1)NC(=O)Nc1ccc2c(CN3CCCC3)cn(Cc3c(Cl)cccc3Cl)c2c1)C(=O)NCc1ccccc1 [Compound 108] | 5.43
* NCCNC(=O)[C@H](Cc1ccccc1)NC(=O)[C@H](Cc1ccc(Cl)cc1)NC(=O)Nc1ccc2c(CN3CCCC3)cn(Cc3c(Cl)cccc3Cl)c2c1 [Compound 133] | 6.07
* NCCC[C@H](NC(=O)[C@H](Cc1ccc(F)c(F)c1)NC(=O)Nc1ccc2c(CN3CCCC3)cn(Cc3c(Cl)cccc3Cl)c2c1)C(=O)N1CCCCC1 [Compound 115] | 5.57
* Cc1ccccc1Cn1c(Cl)c(CN2CCCC2)c2ccc(NC(=O)N[C@@H](Cc3cccc(F)c3)C(=O)N[C@@H](CCCN=C(N)N)C(=O)NCc3ccc(F)cc3)cc21 [Compound 173] | 5.70
* COc1ccc(C[C@H](NC(=O)Nc2ccc3c(CN4CCCC4)cn(Cc4ccc(F)cc4)c3c2)C(=O)N[C@@H](CCCNC(=N)N)C(=O)NCc2ccccc2)cc1 [Compound 1] | 6.08
* NCC[C@H](NC(=O)[C@H](CCc1ccccc1)NC(=O)Nc1ccc2c(CN3CCCC3)cn(Cc3c(Cl)cccc3Cl)c2c1)C(=O)NCc1ccccc1 [Compound 128] | 4.73
* Cc1ccccc1Cn1cc(CN2CCCC2)c2ccc(NC(=O)N[C@@H](Cc3ccc(Cl)cc3)C(=O)N[C@@H](CCCNC(=N)N)C(=O)NCc3ccccc3)cc21 [Compound 48] | 6.30
